binders and their reported kon
Biological target: T1, recombinant human IL-6 (human, UniProt P05231 30-212)
T1 construct: Flowed in solution over the captured antibodies
T1 sequence (P05231 30-212 limits assumed): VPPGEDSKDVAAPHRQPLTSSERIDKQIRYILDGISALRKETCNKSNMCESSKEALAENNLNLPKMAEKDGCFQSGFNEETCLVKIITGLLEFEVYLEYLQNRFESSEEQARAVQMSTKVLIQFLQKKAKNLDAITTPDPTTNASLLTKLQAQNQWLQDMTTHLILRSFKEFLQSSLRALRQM
Experiment: SPR (Biacore), supernatant IgG on Protein A, 25 C
PARAMETER: kon

BINDER	PARAMETER	RESULT
anti-IL-6 antibody, heavy chain L106I, light chain WT (antibody, IgG1, V domains shown, Full IgG1 tested; V domains derived as in m2) VH: EVQLVESGGGLVQPGGSLRLSCAASGFTFSPFAMSWVRQAPGKGLEWVAKISPGGSWTYYSDTVTGRFTFSLDTSKSTAYLQMNSLRAEDTAVYYCARQLWGYYAIDIWGQGTLVTVSS VL: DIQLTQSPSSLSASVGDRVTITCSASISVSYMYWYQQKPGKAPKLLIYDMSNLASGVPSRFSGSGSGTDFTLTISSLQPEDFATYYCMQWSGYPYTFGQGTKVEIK	kon	479000 M⁻¹ s⁻¹
anti-IL-6 antibody, heavy chain R98G, light chain WT (antibody, IgG1, V domains shown, Full IgG1 tested; V domains derived as in m2) VH: EVQLVESGGGLVQPGGSLRLSCAASGFTFSPFAMSWVRQAPGKGLEWVAKISPGGSWTYYSDTVTGRFTFSLDTSKSTAYLQMNSLRAEDTAVYYCAGQLWGYYALDIWGQGTLVTVSS VL: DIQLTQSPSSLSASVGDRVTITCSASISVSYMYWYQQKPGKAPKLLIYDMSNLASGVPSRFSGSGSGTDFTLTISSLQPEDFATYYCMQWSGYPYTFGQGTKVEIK	kon	176000 M⁻¹ s⁻¹
